system: MS2 coat protein; assay: apparent KD of MS2 coat protein, switch ON state; designed switch direction (-1 OFF switch, 1 ON switch): -1; higher = weaker reporter binding; details: FMN input: 0 or 200 uM; Eterna round: R93 (includes R88 designs)
result type: apparent KD of MS2 coat protein (nM)

AAGAACUAAGGAUAUACAAAAUAAAAGAAAAGAAAGAAAGAACAUGAGGAUCACCCAUGUAGAAGGUAGAAGAA [Khakheperre Senusret II]	19.9
AAAUACCAAGGAUAUACAUGAGGAUCACCCAUGUACAAACCCGUGGAACGGAUCGUUGGUAGAAGGUGGAAAUA [Isleusso]	13.4
AACUGACAUGAGGAUCACCCAUGUCAGGAUAUGCUUCUAGGAAAAAUAAAAACUAGAUGCAGAAGGGAUAUGGG [Design 38]	22.2
CUCUAGUCAGGAUAUGCAUGAAAUGAAGUGAAAGAAAAGAAGCAGAAGGGACAUGAGGAUCACCCAUGUUAGAA [EteRNA is fun!]	29.6
AAAAAGGCAGGAUAUGCAUACACACGAAAAAAAACGCUGGGACAUGAGGAUCACCCAUGUAGAAGGGCCAAAAA [Dora Explored 10 - Jieux - Exclusion 2]	57.2
AAAAAACAUGAGGAUCACCCAUGUCAGGAUAUGCUAUGGAAAUAAAAAAUAAAACAUAGCAGAAGGGACACCAA [Mat - Exclusion 1 - Eli mod - D48]	31
ACCUGACAUGAGGAUCACCCAUGUCAGGAUAUGUACAUCAGGAAAAAAAAACUGAUGUACAGAAGGGACAAGGG [Design 6: Super Stable - A-U mutation 2]	17.8
GUGUACAGAGGAUAUACAUAAGCAUGGAAACAUGCAAGAUCACAUGAGGAUCACCCAUGUAGAAGGCUGUACAC [Ex2: 738]	342
AAAAAACAUGAGGAUCACCCAUGUAAGGAUAUGCAAAACCCAUAUAAAAAGGGAAAAAGCAGAAGGUGCAAAAA [wbt round 1 mod 5]	23.7
CUCUAGUGAGGAUAUCGAAGAAAAGAAGAGAAAGAAAAGAACGAGAAGGCACAUGAGGAUCACCCAUGUAAGAA [EteRNA is fun!]	23.6
AAAAAGUCAGGAUAUACGUAAGUGCGAAAGCACAAAUGGAAACAUGAGGAUCACCCAUGUAGAAGGGACAAGAA [JL In the Red 02 (Mod)]	36.7
CUCUAGUUAGGAUAUGCAAGAAAAGAAGAGAAAGAAAAGAAGCAGAAGGAACAUGAGGAUCACCCAUGUAAGAA [EteRNA is fun!]	22.7
AAAAAACAUGAGGAUCACCCAUGUAAGGAUAUACAAAACCCAUAUAAAAAGGGAAAAAGUAGAAGGUGCAAAAA [wbt round 1 mod 7]	22.5
AAAAAGUCAGGAUAUGUGGAAAAAAUAAAAAAAAUAAAAACACAGAAGGGACAUGAGGAUCACCCAUGUAAAAA [Ex 4 May 19]	71.7
AAAAAGGGAGGAUAUACAUGAGGAUCACCCAUGUAACAGACGAAAAAGAGUCUGAAAUGUAGAAGGCCCAAAAA [65%, Moding Exclusion3-cac2, 5]	24.6
AAGAAGGUAGGAUAUACUAGGGCAACUAAUGCAAAGAUAGGACAUGAGGAUCACCCAUGUAGAAGGGCCAGAAA [JR_Exc002_Sub403]	48
AAGAAACAUGAGGAUCACCCAUGUGAGGAUAUUGAAGAAAGAAAGAAAGAAAGAAGAACAAGAAGGCACAAAGG [Quintus Magnus Maximus]	26.9
AAAAUACAUGAGGAUCACCCAUGUGAGGAUAUGCGAAUAAAAAUAAAAUAAAAUAAAAGCAGAAGGCACGAAAA [EX 1 May 24]	33.4
AUAAUGCGAGGAUAUACAUGAGGAUCACCCAUGUAAAUAAAUAGGAGAGCCACAUUAAGUAGAAGGUGCAUUAA [JR_Exc003_Sub501]	32.8

---

test system: MS2 coat protein; experiment: apparent KD of MS2 coat protein, switch ON state; designed switch direction (-1 OFF switch, 1 ON switch): 1; higher = weaker reporter binding; settings: FMN input: 0 or 200 uM; Eterna round: R93 (includes R88 designs)
result type: apparent KD of MS2 coat protein

AAGAAACAUGAGGAUCACCCAUGUAAGAUAAACACAGGAUAUGCGAAAAGAAAUAAAGAAGCAGAAGGGUGAAGAA [Mat - Same State 1 - Tesla mod - 63]	21.7 nM
AUAACACAUGAGGAUCACCCAUGUAGAUACAAGUCAGGAUAUGCAACCUCAUGAAAAAAAGCAGAAGGGACAAUAA [SS 1 Tesla 3]	27.5 nM
GAGAAACAUGAGGAUCACCCAUGUAGAAAUAUGGGAGGAUAUACAAAGACGAAAGUCAAAGUAGAAGGCCUAAAAG [77%, Mat - Mod of Eli - With 1 more G's]	26 nM
GUGGACGUAGGAUAGGAUAUAUGAAUAAUUACAUGAGGAUCACCCAUGUCCAUUUAUAUGGGAACAUAGAAGGGUUGUGGUUAAC [Mat - Same state - Malcolm Mod - D132]	364 nM
CGAAAGGAGAGAGAGGAUAUCCAAAGGAAAACAUGAGGAUCACCCAUGUAGAAGGUAGGAGAUUGGGAGAAGGCUCAAGCAAAAC [salish99-ss2-157]	15.9 nM

---

Listed here are sequences together with their documented apparent KD of MS2 coat protein.
test system: MS2 coat protein; experiment: apparent KD of MS2 coat protein; higher = weaker reporter binding; conditions: Eterna round: R107; input ligand: tryptophan 2.4 mM
result type: apparent KD of MS2 coat protein

ACAUGAGGAUCACCCAUGUAUUACCGGGAAGGAGCGCGUAAGGACGCAGGUAGGUCGCUCGGCGUCUGGCCGCAAGGCUGGACGA [#1 Same State - Arginine A Attempt #18 (HarryS)]	15.9 nM
AGUCUUAAUGGAAGGAGCGCAGUCAUAACAUGAGGAUCACCCAUGUCGAGGUGAGGGUCAUUGCAGGUAGGUCGCCAUACUAGAA [Same State - Arginine B (Freestyle 1)]	125 nM
AGUACUCGAACGGAUACCAGCCGGACAUGAGGAUCACCCAUGUCCUACCAUUGUUCGGUUGGCCCUUGGCAGCCGUUCGUGUACA [Omei Theo B SS A v4]	591 nM
AACAAUGCACAUGAGGAUCACCCAUGUGAUACCAGCCGCAACAUAGGCCCUUGGCAGCAUGUGGGUAUAGAACGAUUUGGCUGAA [Xeanle]	41.7 nM
CUCCCGUGAGCGGCCGCCACUGGAGGCCUCGCGCGACAUGAGGAUCACCCAUGUUGGCCCGGCCUCAGGACCGGGUUCGCGCGAG [Same State - Tryptophan B Attempt #5 (HarryS)]	7.41 nM
ACAUGAGGAUCACCCAUGUACAUAAGGGAAGGAGCGCGGUGAGACGCAGGUAGGUCGCCCAUAAUAACAAACAUUAAAUUCAUGU [#25 Same State - Arginine A]	19.1 nM
AGCUCGCAUCCUCUAGCGUCAAAGACGCGUCGAGGACCGGUACGGCCGCCACUCGACUUGAGGAUCACCCAGGUCAAAGCGAGCA [TrypAX 13 #SwitchBubble #AlternativeMS2 #MS2Late #CuTurnoff]	138 nM
CGAACAUGAGGAUCACCCAUGUUAACCGAAGGAGCGGCGCAUAAGUCAGGUAGGUCGCGGUAGAUGAAAUAGAGCAGUGGUGACA [#01 Same State - Arginine A]	27 nM
AAUCAUGGAAACAUGACAUGAGGGUUGCUCCGAGGACCGGUACGGCCGCCACUCGCGAGGAGGCGGACAUGAGGAUCACCCAUGU [#05 Tryptophan A Same State]	68.2 nM
AAUUAUUACGGAAGGAGCGUCUUUCGGCUCAAACAUGAGGAUCACCCAUGUGAUUUUGAAUGACAGGUAGGUCGCCGAUAUUUGA [JR_AAArginiB_Sub030]	25.2 nM
AUCUCGUUCAAUAUACCGCCUUGACUAGAUACCAGCAUGGACCCAUGCCCUUGGCAGCUGGACAUGAGGAUCACCCAUGUUUCAG [SSTheo A #27]	10.8 nM
AGAUUCGACACGGCCGCCACUUGUGGUGGAGGGUCUUUAGUCACACAUGAGGAUCACCCAUGUACAAGGACCGGGUGUUGAGUCU [XTryp B #23]	36.3 nM
ACACGAAGCUGAAGGAGCGUGGUACAAGUUUUUACAUGAGGAUCACCCAUGUUUCGUCAAUCACAGGUAGGUCGCAGAUGCGUGA [#08 Same State - Arginine B]	25.9 nM
GCUGGGUGCGCAAGGACCUGGCGUUGCGAUACCAGCACGGUAACGUGCCCUUGGCAGCGCACAUGAGGAUCACCCAUGUGGUGUG [#1 Exclusion - Theophylline A Attempt #20 (HarryS)]	162 nM
